Quick reference for log10 IC50 among some compounds
Biological target: human orexin-1 receptor (Homo sapiens (Human))
Assay: In vitro assay: intracellular calcium measurements (FLIPR), antagonistic activity
Conditions: CHO cells expressing human orexin-1 receptor, orexin-A agonist, geometric mean, read-out: IC50 Ox1
Heads up, the numbers here are log10 of IC50 in nM units.

Consider the following illustrative entries.
C[C@@]1(c2nc3cc(C(F)(F)F)c(Cl)cc3[nH]2)CCCN1C(=O)c1ccccc1-n1cccn1; 1.43
Cc1cc2[nH]c([C@@H]3[C@@H](C)CCN3C(=O)c3c(-c4ncccn4)ccc(C)c3F)nc2cc1Cl; 1.94
CSc1ccc2nc([C@@H]3CCCN3C(=O)c3cc(C)ccc3-n3nccn3)[nH]c2c1; 1.99
COc1ccc(-c2ccc(OC(F)(F)F)cc2)c(C(=O)N2CCC[C@@]2(C)c2nc3c(C)c(Cl)ccc3[nH]2)c1F; 1.52
COc1ccc2nc([C@@H]3CCCN3C(=O)c3cc(C)ccc3-n3nccn3)[nH]c2c1; 2.39
Cc1ccc(-n2nccn2)c(C(=O)N2CCC[C@@]2(C)c2nc3c(C)c(Cl)ccc3[nH]2)c1; 0.30

INPUT: Need log10 IC50, item Cc1ccc(-n2cccn2)c(C(=O)N2CCC[C@@]2(C)c2nc3cc(C(F)(F)F)ccc3[nH]2)n1
OUTPUT: 1.88

INPUT: Now give it for Cc1nc(C(=O)N2CC[C@H](C)[C@H]2c2nc3c(C)c(Cl)ccc3[nH]2)c(-c2cccc(Cl)c2)s1 too.
OUTPUT: 0.00

INPUT: For Cc1ccc(-c2ncccn2)c(C(=O)N2CC[C@H](C)[C@H]2c2nc3cc(Cl)cc(C)c3[nH]2)c1 then?
OUTPUT: 0.85

---

Biological target: human orexin-1 receptor (Homo sapiens (Human), UniProt O43613)
Sequence (O43613 whole entry): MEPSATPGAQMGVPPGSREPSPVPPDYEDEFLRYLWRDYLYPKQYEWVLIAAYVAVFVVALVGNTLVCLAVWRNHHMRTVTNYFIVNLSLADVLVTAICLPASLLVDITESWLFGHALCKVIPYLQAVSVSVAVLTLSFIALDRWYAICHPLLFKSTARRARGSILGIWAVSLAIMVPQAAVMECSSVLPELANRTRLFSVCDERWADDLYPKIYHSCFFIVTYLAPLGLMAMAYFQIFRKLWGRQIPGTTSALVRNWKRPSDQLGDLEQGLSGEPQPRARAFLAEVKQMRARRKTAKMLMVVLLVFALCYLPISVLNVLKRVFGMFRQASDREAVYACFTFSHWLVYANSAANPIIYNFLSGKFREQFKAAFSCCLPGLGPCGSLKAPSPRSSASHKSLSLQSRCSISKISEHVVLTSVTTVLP
Assay: In vitro assay: intracellular calcium measurements (FLIPR), antagonistic activity
Conditions: CHO cells expressing human orexin-1 receptor, orexin-A agonist, geometric mean, read-out: IC50 Ox1
readout label: IC50 (nM)
Record the value in nM, omitting the unit from your answer.

Some solved cases for reference:
C=C1C[C@@H](c2nc3ccc(Cl)c(C)c3[nH]2)N(C(=O)c2cc(OC)ccc2-n2nccn2)C1 [Ex. 6.131]; 9
Cc1nc(C(=O)N2CC[C@H](C)[C@H]2c2nc3cc(C(F)(F)F)ccc3[nH]2)c(-c2ccccc2Cl)s1 [Ex. 4.146]; 6
Cc1ccc(-c2ccc(F)cc2C)c(C(=O)N2CCC[C@@]2(C)c2nc3cc(C)c(C)cc3[nH]2)c1 [Ex. 5.91]; 217

// next item, IC50 requested
INPUT: IC50 lookup needed for Cc1ccc(-n2nccn2)c(C(=O)N2CCC[C@@]2(C)c2nc3cc(SC(F)(F)F)ccc3[nH]2)c1 [Ex. 5.30] , thanks.
OUTPUT: 57

---

Target: human orexin-1 receptor (Homo sapiens (Human), UniProt O43613)
Test: In vitro assay: intracellular calcium measurements (FLIPR), antagonistic activity
Conditions: CHO cells expressing human orexin-1 receptor, orexin-A agonist, geometric mean, read-out: IC50 Ox1
Form field: IC50 (one value per entry).
Provide a numeric answer, followed by its unit.

Cc1cccc(-c2ccc(C)cc2C(=O)N2CCC[C@@]2(C)c2nc3cc(C)c(C)cc3n2CC2CC2)c1; 42 nM
Cc1nc(C(=O)N2CCCC2c2nc3c(Br)cc(F)cc3[nH]2)c(-c2ccccc2)s1 (stereo not drawn); 35 nM

# input for lookup
INPUT: Item under review: Cc1cc(C(=O)N2CCC[C@@]2(C)c2nc3c(C)c(Cl)ccc3[nH]2)c(-n2nccn2)cn1 . Reported IC50?
OUTPUT: 56 nM
